biological target: hGLP-1R (Homo sapiens, UniProt P43220); assay: cell-based or functional assay
Sequence (P43220 24-463): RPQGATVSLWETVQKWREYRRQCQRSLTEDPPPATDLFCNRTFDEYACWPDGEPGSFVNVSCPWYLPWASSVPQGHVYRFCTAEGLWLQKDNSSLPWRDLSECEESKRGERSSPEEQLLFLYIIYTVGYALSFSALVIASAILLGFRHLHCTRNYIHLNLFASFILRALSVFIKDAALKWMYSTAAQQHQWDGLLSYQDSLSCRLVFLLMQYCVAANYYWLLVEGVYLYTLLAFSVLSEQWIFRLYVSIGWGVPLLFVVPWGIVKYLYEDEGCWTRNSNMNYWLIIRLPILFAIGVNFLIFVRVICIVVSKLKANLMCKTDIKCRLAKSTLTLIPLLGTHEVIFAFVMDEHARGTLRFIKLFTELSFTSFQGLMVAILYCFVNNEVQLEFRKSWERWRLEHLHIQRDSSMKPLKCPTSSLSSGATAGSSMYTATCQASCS
Starred links: 1 amine or outer side, 2 acyl side, 3 side chain; linkers in the order of their positions; H or OH if unused. Non-standard residues stand in square brackets, D forms with d. Groups on a side chain read outwards from the residue. No end group written: not given here. *: point of attachment. C20 diacid = O=C(O)CCCCCCCCCCCCCCCCCCC(=O)*; αMePhe(2-F) = C[C@](N)(Cc1ccccc1F)C(=O)O; γGlu = O=C(O)[C@H](CCC(=O)[*:2])N[*:1]; NMeY = CN[C@@H](Cc1ccc(O)cc1)C(=O)O; αMeF = C[C@](N)(Cc1ccccc1)C(=O)O; AEEA = NCCOCCOCC(=O)O; Aib = CC(C)(N)C(=O)O
# Relative cAMP EC50 values compiled below
measured-endpoint: Relative cAMP EC50 (pM)

Y[Aib]QGT[αMePhe(2-F)]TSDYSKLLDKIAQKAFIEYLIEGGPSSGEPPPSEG-NH2 (not fully specified (residue 20)) [Example 304] | 551
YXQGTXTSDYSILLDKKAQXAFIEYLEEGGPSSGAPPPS (synthetic construct; SITE 2: note = 2-Aminoisobutyric Acid; SITE 6: note = alpha-methyl-L-phenylalanine; SITE 17: note = Lysine is chemically modified through conjugation of the epsilon-amino group of the Lysine side chain with (2-[2-(2-Amino-ethoxy)-ethoxy]-acetyl)-(gamma-Glu)-CO-(CH2) 16-CO2H; SIT) [Example 392] | 253
[NMeY][Aib]QGT[αMeF]TSDYSILLDKQAAK([AEEA-AEEA-γGlu-C20 diacid])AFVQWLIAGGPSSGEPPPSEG-NH2 [Example 301] | 641
